- Test system: Pseudomonas aeruginosa
- Protocol Text: Antibacterial activity against carbapenem-resistant Pseudomonas aeruginosa isolate 1C3 PTOL1 harboring acquired beta-lactamase OXA-17 by broth microdilution method
- Type: functional
MIC overview
Recorded Endpoint: MIC (µg/mL)

INSERT INTO results (compound, study_target, recorded_endpoint, prefix_operator, result_value) VALUES
  ('C[C@@H](O)[C@H]1C(=O)N2C(C(=O)O)=C(SCCNC=N)C[C@H]12 [IMIPENEM ANHYDROUS]', 'Pseudomonas aeruginosa', 'MIC', '>', 64),
  ('O=C(O)c1cn(C2CC2)c2cc(N3CCNCC3)c(F)cc2c1=O', 'Pseudomonas aeruginosa', 'MIC', '=', 4),
  ('CC(C)(O/N=C(\C(=O)N[C@@H]1C(=O)N2C(C(=O)[O-])=C(C[n+]3ccccc3)CS[C@H]12)c1csc(N)n1)C(=O)O', 'Pseudomonas aeruginosa', 'MIC', '>', 64),
  ('NC[C@H]1O[C@H](O[C@H]2[C@H](O)[C@@H](O[C@H]3O[C@H](CO)[C@@H](O)[C@H](N)[C@H]3O)[C@H](N)C[C@@H]2N)[C@H](N)C[C@@H]1O', 'Pseudomonas aeruginosa', 'MIC', '=', 64);
